# Tested on: KM12 colon
# Assay Summary: NCI-60 one-dose screen, 48 h
# Condition Info: 10 µM unless noted
# Method: Growth inhibition of the KM12 human tumor cell line is measured as a screen for anti-cancer activity. Cells are grown in 96 well plates and exposed to the test compound for 48 hours. Compounds are tested at a single concentration, which is 10^-5 M for most compounds. The reported endpoint is percent growth (GI% or GIPRCNT), where numbers from 0 - 100% represent growth inhibition, and numbers from -100% - 0 represent cell death. For example, a value of 40 represents 60% growth inhibition. […]
This is part of a sample that, as a whole, favours compounds with a hit. Of some 83,000 tested, about 20% had one in any assay. Calls of active or inactive are those of the source. Rule for the calls: active = growth percent below 10; inactive = the rest.
# output must be one of Y = active, N = inactive

> print(dat)
                                   molecule  assigned.class
1  O=C(Cn1cc(CN2C(=O)c3ccccc3S2(=O)=O)nn1)Nc1cccc(Cl)c1               N

Check the results log: what was the call for `N=c1sc(Cc2cc(Cl)ccc2Cl)cn1CC(=O)c1ccccc1` ?
N

Try this molecule too: `CCN(CC)CCOc1nc2c3ccc(Cl)cc3nn2c2ccccc12`
N

###

# Test system: MALME-3M melanoma
# Assay Summary: NCI-60 one-dose screen, 48 h
# Condition Info: 10 µM unless noted
Compounds without any hit were thinned out: in the full panel of roughly 83,000, 20% have a hit. The source made the active and inactive calls. Rule for the calls: active = growth percent below 10; inactive = the rest.
# output must be one of active, inactive

Example cases with answers are listed next.
Compound	System	Assigned Class
O=C1NC(=C(Cl)Cl)/C(=N/S(=O)(=O)NCCc2c[nH]c3ccccc23)N1	MALME-3M melanoma	inactive
C=CC(C)(O)CC/C=C(\CO)C(=O)OC1C(C)OC(O[C@](C)(C=C)CC/C=C(\CO)C(=O)O[C@H]2C[C@@]3(C(=O)OC4OC(CO)C(O)C(O)C4OC4OC(C)C(OC5OC(CO)C(O)C5O)C(OC5OC(CO)C(O)C(O)C5O)C4O)C(CC2(C)C)C2=CCC4[C@@]5(C)CC[C@H](OC6OC(COC7OC(C)C(O)C(O)C7OC7OCC(O)C(O)C7O)C(O)C(O)C6NC(C)=O)C(C)(C)C5CC[C@@]4(C)[C@]2(C)C[C@H]3O)C(O)C1O (some centres not stated)	MALME-3M melanoma	active
O[C@@H](c1cc(C(F)(F)F)nc2c(C(F)(F)F)cccc12)[C@H]1CCCCN1	MALME-3M melanoma	inactive

Check the results log: what was the call for `Cc1[nH]c(C(=O)Nc2cccc(OC3CCNCC3)c2)c(Cl)c1Cl` ?
inactive

Try this compound too: `Cc1ccccc1OCC(O)COc1ccccc1C`
inactive

Try this compound too: CC1(C)C2CC=C(/C=N/NC(=O)C3CCC(=O)N3)C1C2 (configuration not stated)
inactive

Try this compound too: `O=C(CCl)Nc1ccc2c(Nc3cc(O)ccc3Cl)ncnc2c1`
active

###

# Tested on: EKVX NSCLC
# Assay Summary: NCI-60 one-dose screen, 48 h
# Condition Info: 10 µM unless noted
# Experimental: Growth inhibition of the EKVX human Non-Small Cell Lung tumor cell line is measured as a screen for anti-cancer activity. Cells are grown in 96 well plates and exposed to the test compound for 48 hours. Compounds are tested at a single concentration, which is 10^-5 M for most compounds. The reported endpoint is percent growth (GI% or GIPRCNT), where numbers from 0 - 100% represent growth inhibition, and numbers from -100% - 0 represent cell death. […]
Compounds without any hit were thinned out: in the full panel of roughly 83,000, 20% have a hit. Calls of active or inactive are those of the source. How the source made its calls: active means growth percent below 10; inactive means the rest.
# output must be one of 1 = active, 0 = inactive

Example cases with answers are listed next.
> print(dat)
                                   molecule  assigned.class
1  COc1ccc(Cn2cc(C(=O)N=Nc3c(O)[nH]c4c(Cl)cccc34)nn2)cc1               0
2  O=C1NC(=C(Cl)Cl)/C(=N/S(=O)(=O)NCCc2c[nH]c3ccccc23)N1               0
3  N=c1c2c(=N)n3c(nc2nc2n1-c1ccccc1Sc1ccccc1-2)sc1cc(Cl)ccc13               0
4  CC(C)c1ccc(NC(=O)Nc2ccc(NC(=O)c3ccccc3N)cc2)cc1               0
5     O=C(/C=C/c1ccccc1)Nc1ncc(Cc2ccccc2)s1               0
6  CN1CCN(C(=O)c2cc(-c3ccc4ncnc(N5CCc6cc(F)c(Cl)cc65)c4c3)cnc2N)CC1               1

Check the results log: what was the call for CSCCC(NC(=O)c1ccccc1)C(=O)N/N=C1\S/C(=C/c2ccc(Cl)cc2)C(=O)N1C (configuration not stated) ?
0

Try this molecule too: `CCCCCCCCCCCCCCCCCCOc1ccccc1CC(=O)OCC[N+]1(C)CCOCC1`
0

Try this molecule too: `CCOC(=O)c1c(NC(=O)CSc2n[nH]c3nc4ccccc4n23)sc(CC)c1C`
0

Try this molecule too: `CC1(C)CC2=C3C=C[C@@H]4[C@@]5(C)CC[C@H](O)C(C)(C)[C@@H]5CC[C@@]4(C)[C@]3(C)CC[C@@]2(C(=O)O)CC1=O`
0

Try this molecule too: `Cn1c(/C=C/[N+](=O)[O-])cc2ccccc21`
0

Try this molecule too: `COc1ccc2c(O)c(/C=C3\N=Nc4ccccc43)oc2c1C[C@H]1CCNC[C@H]1F`
0

Try this molecule too: COc1ccc(C2=Nc3c(N)ncnc3NC(c3cccc(Nc4ccnc5cc(C(F)(F)F)ccc45)c3)C2)cc1 (configuration not stated)
0

Where do the numbers come from? From PubChem BioAssay (NCI).
